# protocol-summary: terephthalic acid (TPA) released, HPLC; higher = more TPA released; extreme values may be limits of the assay
# setup-conditions: PET substrate: aFilm; 70 °C; pH 4.5; 24 h
measure-name: terephthalic acid (mM)
State just the number; it will be interpreted in mM.

Req: Returns the measured terephthalic acid for the input sequence. Input: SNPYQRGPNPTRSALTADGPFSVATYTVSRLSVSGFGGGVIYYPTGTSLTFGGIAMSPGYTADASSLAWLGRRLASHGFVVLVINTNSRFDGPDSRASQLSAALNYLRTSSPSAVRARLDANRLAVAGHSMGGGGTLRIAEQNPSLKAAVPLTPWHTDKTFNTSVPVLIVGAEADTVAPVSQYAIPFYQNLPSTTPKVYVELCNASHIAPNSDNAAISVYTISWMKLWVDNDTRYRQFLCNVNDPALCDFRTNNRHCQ [LCC-A2]
Resp: 0.0095
